# TGT: mutant AR (LNCaP) (Homo sapiens, UniProt P10275, T878A)
# Construct: endogenous in cells
# Sequence (P10275 whole entry T878A): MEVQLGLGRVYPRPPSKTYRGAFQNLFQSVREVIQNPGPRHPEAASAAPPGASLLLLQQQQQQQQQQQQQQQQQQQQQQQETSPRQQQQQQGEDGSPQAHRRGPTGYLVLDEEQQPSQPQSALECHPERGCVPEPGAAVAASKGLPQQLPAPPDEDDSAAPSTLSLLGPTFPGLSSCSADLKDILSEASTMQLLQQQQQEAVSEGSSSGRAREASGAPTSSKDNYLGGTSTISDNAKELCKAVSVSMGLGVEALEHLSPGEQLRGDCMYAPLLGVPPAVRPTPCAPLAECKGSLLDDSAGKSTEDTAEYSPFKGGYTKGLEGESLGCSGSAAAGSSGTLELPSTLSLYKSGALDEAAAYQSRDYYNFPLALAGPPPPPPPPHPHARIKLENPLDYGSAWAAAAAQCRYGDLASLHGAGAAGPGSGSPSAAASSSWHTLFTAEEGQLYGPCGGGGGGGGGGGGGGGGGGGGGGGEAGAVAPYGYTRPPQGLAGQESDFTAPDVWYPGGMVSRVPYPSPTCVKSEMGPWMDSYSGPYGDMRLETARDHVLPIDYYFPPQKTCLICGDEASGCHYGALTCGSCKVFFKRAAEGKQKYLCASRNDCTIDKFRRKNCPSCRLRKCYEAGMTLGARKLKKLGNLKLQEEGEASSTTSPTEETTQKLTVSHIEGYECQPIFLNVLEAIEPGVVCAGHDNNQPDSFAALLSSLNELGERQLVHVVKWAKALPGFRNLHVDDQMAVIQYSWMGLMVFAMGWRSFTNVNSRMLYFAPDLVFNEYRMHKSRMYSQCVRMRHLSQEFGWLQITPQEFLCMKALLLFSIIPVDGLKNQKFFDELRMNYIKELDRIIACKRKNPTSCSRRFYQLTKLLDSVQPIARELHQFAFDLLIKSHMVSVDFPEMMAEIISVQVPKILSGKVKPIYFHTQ
# PROTOCOL: AR competition assay with [3H]-R1881 in LNCaP cells
# PARTICULARS: competition with 0.1 nM [3H]-R1881, read-out: IC50, affinity for mutant AR
METRIC: IC50 (nM)

>  <MOLECULE>
C[C@]12CCC(=O)C=C1CC[C@@H]1[C@@H]2CC[C@]2(C)C(c3cccnc3)=CC[C@@H]12 [Compound D4A, 17-(3-Pyridyl)androsta-4,16-dien-3-one]

>  <METRIC>
IC50

>  <OBSERVED RESULT>
5.3

$$$$
